# Test system: Myotonic Dystrophy 1 affected patient fibroblasts (Coriell GM04602; 1600 CTG repeats)
# Test details: DM1 foci reduction assay (CAG10-Cy3 FISH, average foci per nucleus)
# Assay type: cell-based
# Condition: Homo sapiens, Fibroblast, 48 h, read-out: Foci Reduction in Fibroblast EC50, 48 h (nM)
Reported property: EC50

Report EC50 for CCN(CC)CCCC[C@H](NC(=O)COCCNC(=O)c1cnn(-c2ccc(C(C)(C)C)cc2)c1)C(=O)N[C@@H](CO)C(=O)NCCOCCOCCOCCOCCOCCNC(=O)CCNC(=O)c1nc(NC(=O)c2cc(NC(=O)CCNC(=O)c3nc(NC(=O)CCCNC(=O)c4cc(NC(=O)c5nc(NC(=O)CCNC(=O)c6cc(NC(=O)c7nccn7C)cn6C)cn5C)cn4C)cn3C)cn2C)cn1C [Compound 150] please.
> 500 nM

Let us now turn to CCN(CC)CCCC[C@H](NC(=O)[C@H](CC(C)C)NC(=O)[C@H](C)NC(=O)[C@H](Cc1ccccc1)NC(=O)c1ccc(C(C)(C)C)cc1)C(=O)N[C@@H](CO)C(=O)NCCOCCNCC#CC#Cc1ccc(NC(=O)CCNC(=O)c2nc(NC(=O)c3cc(NC(=O)CCNC(=O)c4nc(NC(=O)CCCNC(=O)c5cc(NC(=O)c6nc(NC(=O)CCNC(=O)c7cc(NC(=O)c8nccn8C)cn7C)cn6C)cn5C)cn4C)cn3C)cn2C)cc1 [Compound 98]
> 500 nM

Then CCN(CC)CCCC[C@H](NC(=O)[C@H](CC(C)C)NC(=O)[C@H](C)NC(=O)[C@H](Cc1ccccc1)NC(=O)c1ccccc1C)C(=O)N[C@@H](CO)C(=O)NCCOCCOCCOCCOCCOCCNC(=O)c1cc(NC(=O)c2cc(NC(=O)c3nc(NC(=O)c4cc(NC(=O)[C@@H](N)CCNC(=O)c5nc(NC(=O)CCNC(=O)c6cc(NC(=O)c7nccn7C)cn6C)cn5C)cn4C)cn3C)cn2C)cn1C [Compound 89] ?
> 500 nM

====

# System: Myotonic Dystrophy 1 affected patient fibroblasts (Coriell GM04602; 1600 CTG repeats)
# Test details: DM1 foci reduction assay (CAG10-Cy3 FISH, average foci per nucleus)
# Assay type: cell-based
# Condition: Homo sapiens, Fibroblast, 48 h, read-out: Foci Reduction in Fibroblast EC50, 48 h (nM)
Task for the reader: assign each of the following molecules its reported EC50.

For the molecule shown here, CCN(CC)CCCC[C@H](NC(=O)[C@H](CC(C)C)NC(=O)[C@H](C)NC(=O)[C@H](Cc1ccccc1)NC(=O)c1ccc(C(C)(C)C)cc1)C(=O)N[C@@H](CO)C(=O)NCCOCCOCCOCCOCCOCCNC(=O)c1cc(NC(=O)c2nc(NC(=O)CCCNC(=O)c3cc(NC(=O)c4nc(NC(=O)CCNC(=O)c5cc(NC(=O)c6nccn6C)cn5C)cn4C)cn3C)cn2C)cn1C , give the reported EC50.
> 500 nM

And CCN(CC)CCCC[C@H](NC(=O)[C@H](CC(C)C)NC(=O)[C@H](C)NC(=O)[C@H](Cc1ccccc1)NC(=O)c1ccc(C(C)(C)C)cc1)C(=O)N[C@@H](CO)C(=O)Nc1ccc(OCCOCCOCCNC(=O)CCNC(=O)c2nc(NC(=O)c3cc(NC(=O)CCNC(=O)c4nc(NC(=O)CCCNC(=O)c5cc(NC(=O)c6nc(NC(=O)CCNC(=O)c7cc(NC(=O)c8nccn8C)cn7C)cn6C)cn5C)cn4C)cn3C)cn2C)cc1 ?
< 100 nM

Let us now turn to CCN(CC)CCCC[C@H](NC(=O)[C@H](CC(C)C)NC(=O)[C@H](C)NC(=O)[C@H](Cc1ccccc1)NC(=O)c1ccc(C(C)(C)C)cc1)C(=O)N[C@@H](CO)C(=O)N(C)CCOCCOCCNC(=O)CCNC(=O)c1nc(NC(=O)c2cc(NC(=O)CCNC(=O)c3nc(NC(=O)CCCNC(=O)c4cc(NC(=O)c5nc(NC(=O)CCNC(=O)c6cc(NC(=O)c7nccn7C)cn6C)cn5C)cn4C)cn3C)cn2C)cn1C
< 100 nM

Input CN(CCCC[C@H](NC(=O)COCCOCCNC(=O)c1ccc(C(C)(C)C)cc1)C(=O)N[C@@H](CO)C(=O)NCCOCCOCCOCCOCCOCCNC(=O)CCNC(=O)c1nc(NC(=O)c2cc(NC(=O)CCNC(=O)c3nc(NC(=O)CCCNC(=O)c4cc(NC(=O)c5nc(NC(=O)CCNC(=O)c6cc(NC(=O)c7nccn7C)cn6C)cn5C)cn4C)cn3C)cn2C)cn1C)C1CC2CCC1C2 (stereo partly shown)
100 to 500 nM

Same lookup for CCN(CC)CCCC[C@H](NC(=O)[C@H](CC(C)C)NC(=O)[C@H](C)NC(=O)[C@H](Cc1ccccc1)NC(=O)c1ccc(C(C)(C)C)cc1)C(=O)N[C@@H](CO)C(=O)N1CCC(N2CCN(CCOCCOCCOCCOCCNC(=O)CCNC(=O)c3nc(NC(=O)c4cc(NC(=O)CCNC(=O)c5nc(NC(=O)CCCNC(=O)c6cc(NC(=O)c7nc(NC(=O)CCNC(=O)c8cc(NC(=O)c9nccn9C)cn8C)cn7C)cn6C)cn5C)cn4C)cn3C)CC2)CC1 , please.
> 500 nM

Lookup CN(CCCC[C@H](NC(=O)[C@H](CCCN1CCOCC1)NC(=O)[C@@H](NC(=O)[C@H](Cc1ccccc1)NC(=O)c1ccc(C(C)(C)C)cc1)C1CCC1)C(=O)N[C@@H](CO)C(=O)NCCOCCOCCOCCOCCOCCNC(=O)CCNC(=O)c1nc(NC(=O)c2cc(NC(=O)CCNC(=O)c3nc(NC(=O)CCCNC(=O)c4cc(NC(=O)c5nc(NC(=O)CCNC(=O)c6cc(NC(=O)c7nccn7C)cn6C)cn5C)cn4C)cn3C)cn2C)cn1C)C1CC2CCC1C2 (stereo partly shown)
100 to 500 nM

Also check CCN(CC)CCCC[C@H](NC(=O)[C@H](CC(C)C)NC(=O)[C@H](C)NC(=O)[C@H](Cc1ccccc1)NC(=O)c1ccc(C(C)(C)C)cc1)C(=O)N[C@@H](CO)C(=O)NCCOCCOCCNC(=O)CCNC(=O)c1nc(NC(=O)c2cc(NC(=O)CCNC(=O)c3[nH]c(NC(=O)CCCNC(=O)c4cc(NC(=O)c5nc(NC(=O)CCNC(=O)c6cc(NC(=O)c7nccn7C)cn6C)cn5C)cn4C)cc3C)cn2C)cn1C
< 100 nM

Would you mind doing CCN(CC)CCCC[C@H](NC(=O)[C@H](CC(C)C)NC(=O)[C@H](C)NC(=O)[C@H](Cc1ccccc1)NC(=O)c1ccc(C(C)(C)C)cc1)C(=O)N[C@@H](CO)C(=O)N1CCN(CCOCCOCCOCCOCCNC(=O)CCNC(=O)c2nc(NC(=O)c3cc(NC(=O)CCNC(=O)c4nc(NC(=O)CCCNC(=O)c5cc(NC(=O)c6nc(NC(=O)CCNC(=O)c7cc(NC(=O)c8nccn8C)cn7C)cn6C)cn5C)cn4C)cn3C)cn2C)CC1 as well?
100 to 500 nM

Please answer likewise for CCCNC(=O)c1cc(NC(=O)c2nc(NC(=O)CCNC(=O)c3cc(NC(=O)c4nc(NC(=O)[C@@H](CCNC(=O)c5cc(NC(=O)c6nc(NC(=O)CCNC(=O)c7cc(NC(=O)c8nccn8C)cn7C)cn6C)cn5C)NC(=O)COCCOCCOCCOCCOCCNC(=O)[C@H](CO)NC(=O)[C@H](CCCCN(CC)CC)NC(=O)[C@H](CC(C)C)NC(=O)[C@H](C)NC(=O)[C@H](Cc5ccccc5)NC(=O)c5ccc(C(C)(C)C)cc5)cn4C)cn3C)cn2C)cn1C
100 to 500 nM

Try CCN(CC)CCCC[C@H](NC(=O)[C@H](CC(C)C)NC(=O)[C@H](C)NC(=O)[C@H](Cc1ccccc1)NC(=O)c1ccccc1C)C(=O)N[C@@H](CO)C(=O)NCCOCCOCCOCCOCCOCCNC(=O)CCNC(=O)c1nc(NC(=O)c2cc(NC(=O)CCNC(=O)c3nc(NC(=O)CCCNC(=O)c4cc(NC(=O)c5nc(NC(=O)CCNC(=O)c6cc(NC(=O)c7nccn7C)cn6C)cn5C)cn4C)cn3C)cn2C)cn1C next.
< 100 nM
